Test system: MS2 coat protein
TEST DETAILS: apparent KD of MS2 coat protein; designed switch direction (-1 OFF switch, 1 ON switch): 1; higher = weaker reporter binding
DETAILS: input ligand: microRNA oligo, concentration not stated
READOUT TYPE: apparent KD of MS2 coat protein (nM)
// return numeric value only (unit: nM, not printed)

Please review the entries below; each comes with its answer.
ACAUGAGACCGAGGAUAUAUUGUACCUACAUGUGACAUGAGGAUCACCCAUGUGGUAAGUAUGACAUAGAAGGCGGAGAUAUGU [Equivalance 92 - Jieux - Same State NG 2] (Eterna round: R96, puzzle: Same State NG 2); 25.9
AAACACAGCAUAACGCCGUGACAUGAGGAUCACCCAUGUACACAGGAUAUCAUGGCAUAACGCCAUGAGAAGGGUGAUCAAGAC [Raorma] (Eterna round: R96, puzzle: Same State NG 3); 77
GUGCUCGUGUAAGGAUAUGCAGCCGUUUCGGCUGCAGAAGGUACUAUAAUACAUGAGGAUCACCCAUGUCUCUAUAGUUUGGUG [salish99_SSNG1_r04_905] (Eterna round: R96, puzzle: Same State NG 1); 22.3
UUAAUAAAUCAAGGAUAUCACGUCGAAUAGACGUGAGAAGGUGAUCAUAACAUGAGGAUCACCCAUGUAUUACAUGAAUAUUAA [SSNG1/1-B1] (Eterna round: R96, puzzle: Same State NG 1); 40
AAAGGAUGAUGUUACAUGAGGAUCACCCAUGUUGUGAUAACUAAGGAUAUGUGUUUAACUAGUUAAUAGAAGGUAGGAUCAUAA [AK SSNG3-V2-3] (Eterna round: R96, puzzle: Same State NG 3); 84.2

Qu. For AUAUGAGAAGCAGGAUAUGUGGAGAAGAAAGAAACAGAAGGGCUUAUGGGACAACAUGAGGAUCACCCAUGUUCUCUGUGAUGA [AK SSNG1-V2-2.1] (Eterna round: R96, puzzle: Same State NG 1) , write its apparent KD of MS2 coat protein.
Ans. 144

Qu. Look up and state reported apparent KD of MS2 coat protein for GGAAGGAGGUCAGGAUAUGAAUGGAUGGGACAUGAGGAUCACCCAUGUAAUAGAAGAAAUCUACAUUAGAAGGGACAAGGAAGG [AK SSNG2-V2-5] (Eterna round: R96, puzzle: Same State NG 2)
Ans. 83.2

Qu. Indicate its recorded apparent KD of MS2 coat protein; the sequence in question is UGUUGUAUUACAGGAUAUCUAUUGUUUUUACUUAGAGAAGGGUAUUCACAUGAGGAUCACCCAUGUAUAUACGAGGAAGUUGUG [JMF's solution 83] (Eterna round: R96, puzzle: Same State NG 1)
Ans. 31

Qu. Supply measured apparent KD of MS2 coat protein of AUUGCUUACGCAGGAUAUGAUGCGGAAACUGCGUCAGAAGGGUGAACAGAAUCGUUGCAAGAAGACAUGAGGAUCACCCAUGUC [SameState NG1 #96] (Eterna round: R96, puzzle: Same State NG 1) in your reply.
Ans. 33.5

Qu. Hello, please tell me recorded apparent KD of MS2 coat protein for this one: UUGCUCGUGUGAGGAUAUGCCGCCGUUUCGGCUGCAGAAGGUACUUUAAUACAUGAGGAUCACCCAUGUCUCUGUUGUUUCGUG [salish99_SSNG1_r04_933] (Eterna round: R96, puzzle: Same State NG 1)
Ans. 23.1

Qu. Input GGAGCCAAGGCAGGAUAUUCAUAUUAAUAACACAUGAGGAUCACCCAUGUGGCCAGAAGGCCUUGGGAGAAGGGCCAUGGCUCG [Xeonanis - 13 mod9] (Eterna round: R96, puzzle: Same State NG 2) , output reported apparent KD of MS2 coat protein.
Ans. 57.7

Qu. Supply recorded apparent KD of MS2 coat protein for GUGGUCAGACAUGAGGAUCACCCAUGUGGAAUAAAUAAGGAAUAGGAUAUCGAAUAUAGGAUAUACGAGAAGGGUUGGUUGGUG (Eterna round: R96, puzzle: Same State NG 3) here.
Ans. 80

Qu. Please list apparent KD of MS2 coat protein recorded for the sequence GGAAUAUGAUGUUACAUGAGGAUCACCCAUGUAGUGAUAACUAAGGAUAUCUGUUAAGAUAACUAAGAGAAGGUAGGAUCAUAA [AK SSNG3-V2-8.3] (Eterna round: R96, puzzle: Same State NG 3)
Ans. 44.9

Qu. Give me measured apparent KD of MS2 coat protein, please, for this sequence: GCCAACGCAUGAGGAUAUGGCACCUUAUUGGUGCCAGAAGGCGUGUGUAUUCACAUGAGGAUCACCCAUGUAUUAUAGUUGGCA [Fiskers NG1ss - 16] (Eterna round: R96, puzzle: Same State NG 1)
Ans. 169

Qu. In one line, give reported apparent KD of MS2 coat protein of the entry CGGGUCGUGCUAGGAUAUCUAGGAUAUGGACGAGGAUUACCCGAGCAGCAUUAGCGCACCAGAGGAGAGAAGGAGCGUGAUGCG [pwkr ssNG2 2F5 2FMN.15] (Eterna round: R96, puzzle: Same State NG 2) .
Ans. 42.2

Qu. For the sequence ACAUGAGACUCAGGAUAUCUUGUACCUACAUGUGACAUGAGGAUCACCCAUGUGGUAAGUAUGACAGAGAAGGGAGAGAUAUGU [Equivalance 87 - Jieux - Same State NG 2] (Eterna round: R96, puzzle: Same State NG 2) , give its reported apparent KD of MS2 coat protein.
Ans. 47.2

Qu. Give reported apparent KD of MS2 coat protein value for AUAAUACAUGAGGAUCACCCAUGUAAUUUAACUUGUAAGAUCAAGGAUAUCAGCUCGAUUAGAGCUGAGAAGGUGAUCACAUGU [SSNG3/20-A2] (Eterna round: R96, puzzle: Same State NG 3)
Ans. 69.1

Qu. Name the recorded apparent KD of MS2 coat protein of the sequence listed here: GGUAUUGACACAGGAUAUGCUUACGAAACGUAAGCAGAAGGGUGAACAUGAGGAUCACCCAUGUAGGUACCAGGGCGUGAGCCC [JL SSNG1 1.75] (Eterna round: R96, puzzle: Same State NG 1)
Ans. 694

----------
Tested on: MS2 coat protein
TEST DETAILS: apparent KD of MS2 coat protein, switch OFF state (with FMN for OFF switches, without FMN for ON switches); designed switch direction (-1 OFF switch, 1 ON switch): -1; higher = weaker reporter binding
DETAILS: FMN input: 0 or 200 uM; Eterna round: R93 (includes R88 designs)
Parameter threshold = 0.03 µM. Response is Condition met when apparent KD of MS2 coat protein meets or exceeds it, else Condition not met.

AAAAAACAUGAGGAUCACCCAUGUCAGGAUAUCGUCAUAGAUGCAAAAGCAUCUAUGACGAGAAGGGACAUGCC [JL EX1 03]; Condition met
AGUUGGCGAGGAUAUACAUGAGGAUCACCCAUGUGAGAGAAAAAAGUGAGAAAGAAAUGUAGAAGGCGCUCACA [JL Lego Mod 13]; Condition met

Qu. Quick check, apparent KD of MS2 coat protein >= 0.03 µM? GAAGAACAUGAGGAUCACCCAUGUGAGGAUAUACAGAAUGGAAUAAAAUAACAAGAAAGUAGAAGGCACAAGAA [Ex 1 May 39]
Ans. Condition met

Qu. Hello, I need to know if AAGUUGGGAGGAUAUAUAUGGACACACAUUGGUGUAGAACUACAUGAGGAUCACCCAUGUAGAAGGCCCAAAUA [AJ 57] has measured apparent KD of MS2 coat protein not below 0.03 µM. Thanks!
Ans. Condition met

Qu. Reported apparent KD of MS2 coat protein at or above 0.03 µM? AGCAAGUCAGGAUAUACGAACAAGACAAAAGACGAGAAGGGACAUGAGGAUCACCCAUGUAGAAGGGACAAGCA [74%, Web mod - With 5 less U's]
Ans. Condition met

----------
System: K4 kissing-loop RNA reporter;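 further: bound reporter read as fluorescence of individual clusters on recovered sequencing chips by microscopy, with normalized cluster intensities fitted with a binding model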
TEST DETAILS: apparent KD of K4 kissing-loop reporter; higher = weaker reporter binding
DETAILS: Eterna round: R107; input ligand: FMN 200 uM
Classify as follows. Reported apparent KD of K4 kissing-loop reporter greater than or equal to 300 nM: yes (1). Reported apparent KD of K4 kissing-loop reporter below: no (0).

Answered examples (4):
AGACUUCACCGAAGGAGCGACGUGGCCUAGUGAUGUUAGGCACGAGAGAAAUCUCGUAUACGUCAGGUAGGUCGCGGUGAAGUCA [Omei KL Arginine B SS C v6]; no (0)
ACAGGAUCGAAGAUCCUGAGCAGUCAAAACCGAGGACCGGUACGGCCGCCACUCGGAGUGAUGUUCCGAAGACUGCAAAAUAAAA [#SwitchBubble 3]; yes (1)
GGAAUAACCUGGGAUACCAGUCGGAGGACUAGGGAUCGGAGUGAUGUUCUGGGAUGUUUCGGCCCUUGGCAGCUCUGGUUUUCCG [#2 Exclusion - Theophylline B Attempt #1 (HarryS)]; yes (1)
UUAGUUAGAUUAUUAUUAGCCUACAAUGCUAAGGAUAUCCGAAUUCGGAGAAGGUAGUGAUGUUACUUAAGUAGGCACUAACAUU [AK7 Exc FMN A]; no (0)

Qu. Check if apparent KD of K4 kissing-loop reporter >= 300 nM (inclusive). Item: CACUGGGCGAGUGAUGUUCGCUCACGUGAUACCAGUGCCAUCCAACACCCUUGGCAGCAUGCGGGCAGUGAUGUUGUCCAAAGAA [Exclusion Theophylline A GF9]
Ans. no (0)

Qu. Could you tell me if the measured apparent KD of K4 kissing-loop reporter of GCAUCCAUGUGAGGAUAUCGAGACGAGUGAUGUUCGGGCACCAGACAGGGAGACCUGUCAAUGGCUUGAGAAGGCACAUGGAUGC reaches 300 nM or more?
Ans. no (0)
